Test system: A498 renal
protocol: NCI-60 one-dose screen, 48 h
measurement-conditions: 10 µM unless noted
This is part of a sample that, as a whole, favours compounds with a hit. Of some 83,000 tested, about 20% had one in any assay. The source made the active and inactive calls. The calls were made as follows: active = growth percent below 10; inactive = the rest.
Your response should consist of one outcome taken from active, inactive

**Query** How was N#Cc1c(-c2cccs2)cc(-c2cnccn2)nc1SCC(=O)N/N=C/c1cccs1 classified in this test?
**Result** inactive

**Query** How was CN1CCN(c2ccc(Nc3nc(NCCNC(=O)c4ccc(F)cc4)c4sccc4n3)cc2)CC1 classified in this test?
**Result** inactive

**Query** How was Cc1ccc2c(n1)C(=O)C(Cl)=C(Nc1cccc(C)c1C)C2=O classified in this test?
**Result** inactive

**Query** How was O=C(O)CC1CCN(c2ccc3nnc(Cl)n3n2)CC1 classified in this test?
**Result** inactive

**Query** How was CCCCCCCCCCCC(=O)NC(C)(C)C(=O)N1CCCC1C(=O)NC(C)(C)C(=O)NC(C)(C)C(=O)N1CCCC1C(=O)NC(C)(C)C(=O)NC(C)(C)C(=O)N1CCCC1C(=O)NC(C)C(=O)NCCC(=O)NC(C)C(=O)NC(C)(C)C(=O)NC(C)(C)C(=O)NC(C)(C)C(=O)NCCC(=O)NC(C)(C)C(=O)NC(C)(C)C(=O)NC(C)(C)C(=O)NC(C)C(=O)NCCC(=O)O (centres undefined) classified in this test?
**Result** active

**Query** How was CC(=O)C1=C(C)NC(NNc2ccccc2)=NC1c1ccc([N+](=O)[O-])cc1 (centres undefined) classified in this test?
**Result** inactive

**Query** How was O=C(CCCCCCN1CC(=O)N2[C@@H](c3ccc(Cl)s3)c3[nH]c4ccccc4c3C[C@H]2C1=O)NO classified in this test?
**Result** inactive

**Query** How was Cc1ccccc1NC(=O)Nc1nc2ccc([N+](=O)[O-])cc2s1 classified in this test?
**Result** active

**Query** How was COc1cc(-c2nc(-c3ccccc3)[nH]c2-c2ccnc(NCCCNS(=O)(=O)c3ccc(C)cc3)n2)ccc1F classified in this test?
**Result** inactive

====

System: T-47D breast
protocol: NCI-60 one-dose screen, 48 h (100 = growth as untreated, 0 = no growth, -100 = all killed)
measurement-conditions: 10 µM unless noted
The panel holds about 83,000 compounds, 20% with a hit somewhere; the sample as a whole holds those more often.
Assign classes using reported growth values and the ranges bin 1: < 30%; bin 2: ≥ 30% and < 90%; bin 3: ≥ 90%, please.

Consider the following illustrative entries.
compound	answer-label
CC(C)C(/C=C/c1[nH]ncc1-c1cc(Cl)ccc1O)N1CCOCC1 (configuration not stated)	bin 3
Cc1[nH]c(C(=O)Nc2ccc(S(=O)(=O)N3CCCCC3)cc2OCCOCCOCCOCCOCCOCCOCCOCCOCCOc2cc(S(=O)(=O)N3CCCCC3)ccc2NC(=O)c2[nH]c(C)c3c2CCCCC3=O)c2c1C(=O)CCCC2	bin 1
CC(=O)c1cc(C(=O)N2c3ccccc3Sc3ccccc32)n2c1ccc1ccccc12	bin 2
COc1cc(C(=O)c2cc(C(C)=O)c3ccc(C)cn23)cc(OC)c1OC	bin 2
Cc1cc2nc3c4cc(C#N)ccc4n(CCN(C)C)c3nc2cc1C	bin 1

**Query** Bin? CC(=O)C1=C(C)NC(NNc2ccccc2)=NC1c1ccc([N+](=O)[O-])cc1 (configuration not stated)
**Result** bin 2

**Query** Bin? O=C1/C(=C/c2cc(F)cc(F)c2)Cc2cc3c(cc21)OCO3
**Result** bin 2

**Query** Bin? CN1CCN(c2ccc(Nc3nc(NCCCNS(=O)(=O)c4ccc(C(F)(F)F)cc4)c4sccc4n3)cc2)CC1
**Result** bin 1

**Query** Bin? CCOC(=O)c1c(NC(=O)c2cccc(C(F)(F)F)c2)sc2c1CCC(=O)C2
**Result** bin 1

**Query** Bin? CCOC(=O)c1cnc2c(-c3ccc(Cl)c(Cl)c3)cnn2c1
**Result** bin 2

**Query** Bin? COc1ccc(C2c3[nH]c4ccc(Cl)cc4c3CCN2c2oc(CO)nc2C#N)cc1 (configuration not stated)
**Result** bin 2

====

growth reference
Test system: HCT-15 colon
protocol: NCI-60 one-dose screen, 48 h (100 = growth as untreated, 0 = no growth, -100 = all killed)
measurement-conditions: 10 µM unless noted
This is part of a sample that, as a whole, favours compounds with a hit. Of some 83,000 tested, about 20% had one in any assay.
Quick reminder: number only, in %, skip the unit.

Here are 3 molecules together with their reported answers.
molecule	measurement
CN1CCN(Cc2ccc(NC(=O)c3cncc(C#Cc4cnc5ccc(N6CCOCC6)nn45)c3)cc2C(F)(F)F)CC1	-53.9
CCNC(=O)Oc1ccc(/C(=C(/C)c2ccc(OC)cc2)c2ccc(OCCN3CCCCCC3)cc2)cc1	-25.8
C=C(C=O)[C@@H]1CC[C@]2(C(=O)O)CC[C@]3(C)C(CC[C@@H]4[C@@](C)(CCC#N)[C@H](C(=C)C=O)CC[C@]43C)[C@@H]12 (some centres undefined)	4.88

**Query** Test system HCT-15 colon; read-out growth; what value for CCOC(=O)c1cccc(NC2=C(Cl)C(=O)c3nc(C)ccc3C2=O)c1 ?
**Result** 72.2

====

System: CAKI-1 renal
protocol: NCI-60 one-dose screen, 48 h
measurement-conditions: 10 µM unless noted
Method: Growth inhibition of the CAKI-1 human tumor cell line is measured as a screen for anti-cancer activity. Cells are grown in 96 well plates and exposed to the test compound for 48 hours. Compounds are tested at a single concentration, which is 10^-5 M for most compounds. The reported endpoint is percent growth (GI% or GIPRCNT), where numbers from 0 - 100% represent growth inhibition, and numbers from -100% - 0 represent cell death. For example, a value of 40 represents 60% growth inhibition. […]
This is part of a sample that, as a whole, favours compounds with a hit. Of some 83,000 tested, about 20% had one in any assay. Active and inactive are the calls of the source. The calls were made as follows: active = growth percent below 10; inactive = the rest.
Your response should consist of one outcome taken from active, inactive

compound	answer-label
CC(=O)Nc1ccccc1-c1nc2ccccc2s1	inactive
CCOC(=O)c1c(NCC(=O)Nc2cccc([N+](=O)[O-])c2)sc(C(C)=O)c1C	active
Cn1cc(-c2nnc(N)nc2-c2c[nH]c3ccc(Br)cc23)c2cc(Br)ccc21	inactive

**Query** How was Fc1cccc(Cl)c1/C=N/Nc1nc(N/N=C/c2c(F)cccc2Cl)nc(N2CCCCC2)n1 classified in this test?
**Result** inactive

**Query** How was COc1ccc2sc(NC(=O)CCCCCCNC(=O)C(O)(O)C(F)(F)F)nc2c1 classified in this test?
**Result** active

**Query** How was O=C(/C=C/c1ccc(Cl)c(Cl)c1)Nc1ncc(Cc2ccc(Cl)c(Cl)c2)s1 classified in this test?
**Result** inactive

====

Tested on: UACC-62 melanoma
protocol: NCI-60 one-dose screen, 48 h (100 = growth as untreated, 0 = no growth, -100 = all killed)
measurement-conditions: 10 µM unless noted
About 83,000 compounds went through this panel and 20% of them were active in at least one assay; those are over-represented in the sample as a whole.
Assign class by growth: not lower than 60% means 1; lower than 60% means 0.

smiles-code	tested-on	answer-label
CN(C)S(=O)(=O)c1ccc(-c2nc(C(Cl)Cl)nc3cc(-c4ccc(F)cc4)nn23)cc1	UACC-62 melanoma	0
Cc1ccc(-c2csc(N/N=C/c3cccs3)n2)cc1	UACC-62 melanoma	1
CCc1cc(OC(=O)N2CCN(CCC(C)(COC(C)(C)C)COC(C)(C)C)CC2)ccc1Nc1cc(-c2ccc(-n3cccn3)cc2)[nH]n1	UACC-62 melanoma	1
Cc1ccc(C)c(NC2=C(Cl)C(=O)c3nc(C)ccc3C2=O)c1	UACC-62 melanoma	0
CNc1sc(S(=O)(=O)NC)nc1S(=O)(=O)c1ccc(C)cc1	UACC-62 melanoma	1
O=c1c2cc(-c3ccc(F)cc3F)ccc2n(Nc2ccccc2)c(=O)n1-c1cccc(C(F)(F)F)c1	UACC-62 melanoma	0

**Query** Does CC(=O)OC[C@@]12Oc3c(cccc3-c3ccc(O)c4c3O[C@]3(COC(C)=O)C(=C4O)C(=O)C[C@H](C)[C@@H]3OC(C)=O)C(O)=C1C(=O)C[C@H](C)[C@@H]2OC(C)=O have a reported growth of at least 60%?
**Result** 0

**Query** Does CC1(C)CC[C@]23CC[C@]4(C)[C@H](CC[C@@H]5[C@@]6(C)CC[C@H](NCO)C(C)(C)[C@@H]6CC[C@]54C)[C@H]2[C@H]1OC3 have a reported growth of at least 60%?
**Result** 1

**Query** Does CC(C)(C)Nc1nc2c(OCCc3ccccc3)cccn2c1-c1ccc([N+](=O)[O-])cc1 have a reported growth of at least 60%?
**Result** 0
